# Substrate: [H][C@]12SCC(COC(C)=O)=C(C(=O)O)N1C(=O)[C@H]2NC(=O)CCC[C@@H](N)C(=O)O
# TEST_PROTOCOL: CPC consumption by HPLC, initial rates
# Assay type: biochemical, Trigonopsis variabilis
# CONDITION_LABEL: 0.1 M potassium phosphate pH 8.0, 30 °C, air saturated
METRIC: kcat/Km

• TvDAAO (Trigonopsis variabilis; C108F/C298Q/E32R/F33D/F54S/M156L) (protein, FAD-containing; no tag mentioned) MAKIVVIGAGVAGLTTALQLLRKGHEVTIVSRDTPGDLSIGYTSPWAGANWLTSYDGGKLADYDAVSYPILRELARSSPEAGIRLISQRSHVLKRDLPKLEVAMSAIFQRNPWFKNTVDSFEIIEDRSRIVHDDVAYLVEFRSVCIHTGVYLNWLLSQCLSLGATVVKRRVNHIKDANLLHSSGSRPDVIVNCSGLFARFLGGVEDKKMYPIRGQVVLVRNSLPFMASFSSTPEKENEDEALYIMTRFDGTSIIGGCFQPNNWSSEPDPSLTHRILSRALDRFPELTKDGPLDIVREQVGHRPGREGGPRVELEKIPGVGFVVHNYGAAGAGYQSSYGMADEAVSYVERALTRPNL = 50000 M⁻¹ s⁻¹
